Parameter: Her2 level. Scope: all listed entries.
# target_system: Receptor tyrosine-protein kinase erbB-2 (Homo sapiens)
# measurement_description: reducers of endogenous Her2 protein level, primary screen, SKBR3 breast tumor cells, AlphaScreen, ATP viability (AID 461);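 further: lower value means less Her2 protein in the cells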
# reported_conditions: 18-24 h, at 10 µM, hits give low values
Report the figure in % without appending any unit label.

Example entries begin here.
compound: CCOC(=O)c1sc(NC(=O)C2CC=CCC2C(=O)O)nc1C (stereo unspecified)
Her2 level, %: 92.5
--
compound: CCOCCn1cnc2sc(C(=O)Nc3nc(C)c(C(=O)OCC)s3)c(C)c2c1=O
Her2 level, %: 81
--
compound: COc1ccccc1OCC(O)COC(N)=O (stereo unspecified)
Her2 level, %: 96

For the compound `CCOC(=O)CCC(=O)O[C@H]1[C@H](O[C@@H]2[C@@H](C)[C@H](O[C@H]3C[C@@](C)(OC)[C@@H](O)[C@H](C)O3)[C@@H](C)C(=O)O[C@H](CC)[C@@](C)(O)[C@H](O)[C@@H](C)C(=O)[C@H](C)C[C@@]2(C)O)O[C@H](C)C[C@@H]1N(C)C` , what Her2 level is on record?
98

And then `CSc1nc(C)c(C(=O)Nc2ccccc2)c(C)c1C#N` , what is it?
76

And then `COc1ccc(CNc2nc(NCc3ccc(OC)cc3)n(S(C)(=O)=O)n2)cc1` , what is it?
114

And then `COC(=O)CCc1c(C)c(C#N)c2nc3ccccc3n2c1N1CCCC1` , what is it?
84

And then Cc1c(C(=O)NCc2cccnc2)sc2ncn(CC(=O)N3CCCCC3C)c(=O)c12 (stereo unspecified) , what is it?
88.5

And then `COc1ccc2c(CC(=O)Nc3nnc(C4CC4)s3)coc2c1` , what is it?
81

* * *

# measurement_description: inhibitors of the yeast RAM network, pilot screen, dse1pr::URA3 reporter, 5-FOA selection (AID 869);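 further: 0% = DMSO wells with no growth and 100% = 10 µM 1-NA-PP1 with full growth; RAM network block rescues cells from 5-FOA so hits raise OD615 growth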
# reported_conditions: S. cerevisiae dse1pr::URA3 5-FOA growth, OD615, 2 d; at 10 µM; hits give high values; strain carries analog-sensitive mutant Cbk1 kinase
assay_metric: inhibition (%)
Report the figure in % without appending any unit label.

Example entries begin here.
molecule: COc1ccc(C2C(C(=O)c3cccs3)=C(O)C(=O)N2c2nncs2)cc1 (stereo unspecified)
inhibition [%]: 0.41

molecule: COc1ccc(N2CCN(CCCNC(=O)CCCn3c(=O)[nH]c4ccsc4c3=O)CC2)cc1
inhibition [%]: 2.75

molecule: COc1cc(-c2nnn(CC#N)n2)ccc1OCc1ccccc1
inhibition [%]: 1.28

molecule: CC(=O)NCCOC(=O)Nc1ccncc1
inhibition [%]: 1.32

molecule: O=C(O)C1CC=CCC1C(=O)NCc1cn2ccccc2n1 (stereo unspecified)
inhibition [%]: 2.84

Let us examine a further case.
For the molecule `Cc1cccn2c(=O)c(C=NCc3ccco3)c(Nc3ccc(Cl)cc3)nc12` , what inhibition is on record?
1.09

* * *

# measurement_description: growth suppression of PTEN-deleted HCT116, pilot screen, cell-based, HCT116 clonal line, CellTiter-Glo (AID 824);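 further: 0% = 20 µM Hyamine control and 100% = vehicle cell control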
# reported_conditions: 60 h, at 10 µM, hits give low values
Results filed as inconclusive are left out.
assay_metric: viability (%)
Report the figure in % without appending any unit label.

Example entries begin here.
compound: CCOC(=O)c1[nH]c(C)c(C(=O)Nc2ccc(C)c(C)c2)c1C
reading_unit: %
viability: 45.9

compound: CN1CCCc2cc3c(C(F)(F)F)cc(=O)oc3nc21
reading_unit: %
viability: 102

compound: Cc1csc2nc(CNC(=O)C3CC=CCC3C(=O)O)cn12 (configuration not stated)
reading_unit: %
viability: 94

Let us examine a further case.
For the compound CCOC(=O)C1CCCN(C(=O)c2cn(CC)c3ccc(S(=O)(=O)N(C)C)cc3c2=O)C1 (configuration not stated) , what viability is on record?
102

* * *

# measurement_description: reversal of MRP1-mediated doxorubicin resistance, pilot screen, H69AR cells, doxorubicin co-treatment (AID 601)
# reported_conditions: H69AR cells + 2 uM doxorubicin, CellTiter-Glo, 72 h; at 10 µM; hits give high values
Parameter: differential viability (reversal). Scope: all listed entries.
Report the figure in % without appending any unit label.

Example entries begin here.
compound: COc1ccc(C(=O)Nn2c(C3CCC3)nc3ccccc3c2=O)c(OC)c1
assay_metric: differential viability (reversal)
reported_measurement: 30
//
compound: COc1ccc(-c2nc(C#N)c(N3CCN(c4ccccc4)CC3)o2)cc1
assay_metric: differential viability (reversal)
reported_measurement: 11.7
//
compound: Cn1c(=O)c2c(nc(NCCCO)n2C/C=C/c2ccccc2)n(C)c1=O
assay_metric: differential viability (reversal)
reported_measurement: -14.8
//
compound: O=C(O)CCC(=O)Nc1ccc(S(=O)(=O)Nc2nccs2)cc1
assay_metric: differential viability (reversal)
reported_measurement: -2.46
//
compound: CC(=O)c1ccc(NS(=O)(=O)c2ccccc2)cc1
assay_metric: differential viability (reversal)
reported_measurement: 7.02

For the compound `CCOC(=O)Nc1ccc(OC)cc1S(=O)(=O)N1CCCCC1` , what differential viability (reversal) is on record?
17.7

And then `O=C(NCCC1=CCCCC1)C1CCN(S(=O)(=O)c2cccc3nsnc23)CC1` , what is it?
14.2

And then `COC(=O)CCc1c(C)c(C#N)c2nc3ccccc3n2c1N1CCCC1` , what is it?
45.5

And then COc1ccc(OC)c(C2/C(=C(\O)c3ccc4c(c3)OCCO4)C(=O)C(=O)N2CCCN(C)C)c1 (stereo not drawn) , what is it?
9.38

And then `COc1cccc(-c2cc(C(=O)N3CCc4ccccc4C3)no2)c1` , what is it?
-5.97

And then O=C1CC(c2ccc(F)c(Br)c2)C2=C(CCCC2=O)N1 (stereo not drawn) , what is it?
5.7

And then `O=S(=O)(c1ccc2c(c1)nc1n2CCC1)N1CCOCC1` , what is it?
7.71

And then `O=C(Cn1ccc2ccccc2c1=O)NCCC(=O)N1CCN(C(=O)c2ccco2)CC1` , what is it?
6.74

* * *

# measurement_description: growth suppression of PTEN-deleted HCT116, pilot screen, cell-based, HCT116 clonal line, CellTiter-Glo (AID 824);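 further: 0% = 20 µM Hyamine control and 100% = vehicle cell control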
# reported_conditions: 60 h, at 10 µM, hits give low values
Results filed as inconclusive are left out.
Values of viability strictly less than 90% map to rule met, and values of at least 90% map to rule not met.

Here's what some known entries look like.
compound: O=C(O)CCC(=O)N1CCc2cc(S(=O)(=O)N3CCN(c4ccc(F)cc4)CC3)ccc21
assigned_label: rule not met
//
compound: Cc1nnc2ccc(N3CCN(C(=O)c4ccccc4)CC3)nn12
assigned_label: rule not met
//
compound: Cc1cccc(N2CCN(C(=O)c3cc4c(=O)n(C)c5ccccc5c4n3C)CC2)c1C
assigned_label: rule met
//
compound: Fc1ccc(C2CC(c3ccccc3)Nc3ncnn32)cc1 (stereo unspecified)
assigned_label: rule not met
//
compound: CCCn1cc(S(=O)(=O)CC(=O)Nc2ccc(OC)cc2OC)c2ccccc21
assigned_label: rule not met
//
compound: COc1ccc(OC)c(S(=O)(=O)NCc2cn3c(C)csc3n2)c1
assigned_label: rule not met

Next item in the queue.
Given Cc1nc2sc(C(c3ccco3)N3CCN(C(c4ccccc4)c4ccccc4)CC3)c(O)n2n1 (stereo unspecified) , is recorded viability strictly lower than 90%?
rule met

* * *

Parameter: growth inhibition. Scope: all listed entries.
# measurement_description: OD615 S. cerevisiae growth inhibition, permissive medium, pilot counter-assay, permissive growth control for S. cerevisiae lifespan shortening project (AID 705)
# reported_conditions: OD615, 24 h, at 10 µM, hits give high values
Report the figure in % without appending any unit label.

Example entries begin here.
molecule: CCNc1nc2c(c(=O)[nH]c(=O)n2C)n1CC(C)C
assay_metric: growth inhibition
reading_unit: %
reported_measurement: -5.42
--
molecule: CC(=O)c1cc(Cc2csc(C(C)=O)c2)cs1
assay_metric: growth inhibition
reading_unit: %
reported_measurement: -9.93
--
molecule: CC(c1cccnc1)N(CCN(C)C)C(=O)Nc1ccc(Cl)c(Cl)c1 (centres undefined)
assay_metric: growth inhibition
reading_unit: %
reported_measurement: -5.64
--
molecule: CCO/C(C)=C1\C(=O)N(CC)c2ccccc21
assay_metric: growth inhibition
reading_unit: %
reported_measurement: -9.62
--
molecule: Cc1cc(Nc2ccc(F)c(Cl)c2)n2nc(C)nc2n1
assay_metric: growth inhibition
reading_unit: %
reported_measurement: 1.03
--
molecule: Cc1cc(OCC(=O)Nc2cc(-c3nn4c(C)nnc4s3)ccc2C)ccc1Cl
assay_metric: growth inhibition
reading_unit: %
reported_measurement: 2.82
--
molecule: O=c1cc(NCc2ccco2)c2ccccc2o1
assay_metric: growth inhibition
reading_unit: %
reported_measurement: -2.07
--
molecule: O=C(O)CSc1cccc2cccnc12
assay_metric: growth inhibition
reading_unit: %
reported_measurement: 15.6
--
molecule: CCCSc1nc2c(c(=O)n1CC)SC(C)C2 (centres undefined)
assay_metric: growth inhibition
reading_unit: %
reported_measurement: -2.71
--
molecule: CCN(CCNS(=O)(=O)c1ccc2[nH]c(=O)sc2c1)c1ccccc1
assay_metric: growth inhibition
reading_unit: %
reported_measurement: 0.725

For the molecule `COc1ccc(-n2nnnc2S(=O)(=O)CC(=O)N2CCCCC2)cc1` , what growth inhibition is on record?
-2.05

And then `Cc1nc2ccccc2c2oc(C(=O)NCCCN3CCC(C)CC3)cc12` , what is it?
2.51

And then `NC(=O)C1CCN(c2nc(C3CC3)nc3c2nnn3Cc2ccccc2Cl)CC1` , what is it?
-11.9

And then `Cc1ccc(Cc2cnc(N)s2)o1` , what is it?
-11.3

And then `COc1cccc(-c2nnc(NC(=O)c3cccc(F)c3)o2)c1` , what is it?
-12.9

And then `Cc1cc(/C=N/n2cnnc2)c(C)n1-c1ccc(OCc2ccc(F)cc2)cc1` , what is it?
-2.2

And then `COc1cccc(-c2cc(C(F)(F)F)nc(N3CCOCC3)n2)c1` , what is it?
-4.32

And then `CCOC(=O)COc1cccc2c(=O)n(CC(=O)NCc3ccc4c(c3)OCO4)ccc12` , what is it?
-18.3

And then `Cn1c(=O)c2c(nc(NCCc3ccccc3)n2Cc2ccc(F)cc2)n(C)c1=O` , what is it?
-4.81

And then `COCCCNC(=O)c1ccc(Cn2c(=O)[nH]c3ccccc3c2=O)cc1` , what is it?
-10.2

And then CC(NC(=O)c1ccccc1O)c1ccccc1 (centres undefined) , what is it?
0.015

And then `O=C(CN1C(=O)c2cccc3cccc1c23)N1CCN(c2ccc(F)cc2)CC1` , what is it?
-26.6

And then `COc1ccccc1N(CC(=O)Nc1ccccc1C(=O)NC(C)C)S(C)(=O)=O` , what is it?
-3.27

And then `COCCNC(=O)Cn1cnc2c1c(=O)n(C)c(=O)n2C` , what is it?
-16.3
